target: NTRK2 (human); test: radiometric filter-binding kinase assay, Kinase HotSpot; conditions: compound 0.5 µM; ATP 10 µM
Classify as follows. Reported residual activity greater than or equal to 90%: Y. Reported residual activity below: N.

Solved cases below.
[
  {
    "SMILES_NOTATION": "O=C1c2ccccc2-c2nc3nnnn3nc21",
    "CATEGORY": "N"
  },
  {
    "SMILES_NOTATION": "COc1cc2ncnc(Nc3ccc(Oc4ccccc4)cc3)c2cc1OC",
    "CATEGORY": "Y"
  },
  {
    "SMILES_NOTATION": "O=C1C(Cl)=C(N2C(=O)CCC2=O)C(=O)c2ccccc21",
    "CATEGORY": "Y"
  }
]

Query :: Given the entry N#Cc1c[nH]c2c[nH]/c(=N\Cc3cccnc3)cc2/c1=N\c1ccc(F)c(Cl)c1 , answer whether its residual activity meets or surpasses 90%.
Result :: Y

Query :: Given the entry Cc1cccc(-c2nc(C(C)(C)C)[nH]c2-c2ccc3c(c2)OCO3)n1 , answer whether its residual activity meets or surpasses 90%.
Result :: Y

Query :: Given the entry COc1ccc(C(=O)Nc2sc3c(c2C(N)=O)CCCC3)cc1OC , answer whether its residual activity meets or surpasses 90%.
Result :: N

Query :: Given the entry COc1ccc(S(=O)(=O)N(CCO)c2ccccc2CN(C)C/C=C/c2ccc(Cl)cc2)cc1 , answer whether its residual activity meets or surpasses 90%.
Result :: Y

Query :: Given the entry COc1ccc(Cl)cc1NC(=O)Nc1cc(C)nc2ccccc12 , answer whether its residual activity meets or surpasses 90%.
Result :: Y

Query :: Given the entry Cc1nc(-c2ccccc2)c(-c2ccncc2)o1 , answer whether its residual activity meets or surpasses 90%.
Result :: Y
